Source: ChEMBL document CHEMBL4321873

Below is a list of entries, each paired with its recorded solubility kinetic at 1 h value.
- PROTOCOL SUMMARY: Kinetic solubility of the compound in pH 7.4 phosphate buffered saline measured after 1 hr by CLND method
- Type: physicochemical
- EXPERIMENTAL CONDITIONS: read-out: Kinetic_solubility

{"SMILES STR": "COc1ncc(-c2cc3c(c(OCCN4CCC(C(C)(C)O)CC4)c2)COC3)cc1NS(C)(=O)=O", "REPORTED METRIC": "solubility kinetic at 1 h", "OBSERVED MEASUREMENT": "197 µg/mL"}
{"SMILES STR": "COCCS(=O)(=O)Nc1cc(-c2cc3c(c(OC[C@H]4CN(C5COC5)CCO4)c2)COC3)cnc1OC", "REPORTED METRIC": "solubility kinetic at 1 h", "OBSERVED MEASUREMENT": "≥ 270 µg/mL"}

input: I'd like to know its solubility kinetic at 1 h. The molecule in question is `COCCS(=O)(=O)Nc1cc(-c2cc3c(c(OCCN4CCC(C(C)(C)O)CC4)c2)CCOC3)cnc1OC`
output: ≥ 184 µg/mL

----------
- PROTOCOL SUMMARY: Intrinsic clearance in human hepatocytes at 0.5 uM measured after 10 mins by LC-MS/MS analysis
- Assay type: ADME, cell-based, Hepatocyte
REPORTED METRIC: intrinsic clearance

{"SMILES STR": "COc1ncc(-c2cc(OCCN3CCC(C(C)(C)O)CC3)c3c(c2F)COC3)cc1NS(C)(=O)=O", "intrinsic clearance": "< 0.9 mL/min/g"}
{"SMILES STR": "COCCS(=O)(=O)Nc1cc(-c2cc3c(c(OCCN4CCC(C(C)(C)O)CC4)c2)CCOC3)cnc1OC", "intrinsic clearance": "< 0.9 mL/min/g"}

input: Need intrinsic clearance of `COc1ncc(-c2cc(OCCN3CCC(C(C)(C)O)CC3)c3c(c2)[C@@H](C)OC3)cc1NS(C)(=O)=O` , thanks.
output: < 0.9 mL/min/g

input: Which intrinsic clearance value belongs to `COCCS(=O)(=O)Nc1cc(-c2cc3c(c(OC[C@H]4CN(C5COC5)CCO4)c2)COC3)cnc1OC` ?
output: < 0.3 mL/min/g

input: Which intrinsic clearance value belongs to `COc1ncc(-c2cc3c(c(OCCN4CCC(C(C)(C)O)CC4)c2)COC3)cc1NS(C)(=O)=O` ?
output: < 0.9 mL/min/g

input: Which intrinsic clearance value is on record for `COCCS(=O)(=O)Nc1cc(-c2cc3c(c(OCCN4CCC(C(C)(C)O)CC4)c2)COC3)cnc1OC` ?
output: < 0.9 mL/min/g

----------
- PROTOCOL SUMMARY: Permeability of the compound in pH 7.05 phosphate buffer measured after 3 hrs by artificial membrane permeability assay based LC-MS analysis
- Type: ADME
- EXPERIMENTAL CONDITIONS: PAMPA, read-out: permeability
REPORTED METRIC: Papp at 3 h

{"SMILES STR": "COc1ncc(-c2cc3c(c(OCCN4CCC(C(C)(C)O)CC4)c2)COC3)cc1NS(=O)(=O)CC#N", "Papp at 3 h": "< 0.3 ×10⁻⁶ cm/s"}

input: I'd like to know its Papp at 3 h. The compound in question is `COCCS(=O)(=O)Nc1cc(-c2cc3c(c(OCCN4CCC(C(C)(C)O)CC4)c2)COC3)cnc1OC`
output: < 0.3 ×10⁻⁶ cm/s

----------
- PROTOCOL SUMMARY: Clearance in Wistar Han rat at 1 mg/kg, iv by LC-MS/MS analysis
- Type: ADME, organism-based
- EXPERIMENTAL CONDITIONS: in vivo
REPORTED METRIC: clearance (mL/min/kg)

{"SMILES STR": "COc1ncc(-c2cc3c(c(OCCN4CCC(C(C)(C)O)CC4)c2)CCOC3)cc1NS(C)(=O)=O", "REPORTED METRIC": "clearance", "OBSERVED MEASUREMENT": 109}
{"SMILES STR": "COc1ncc(-c2cc3c(c(OCCN4CCC(C(C)(C)O)CC4)c2)COC3)cc1NS(C)(=O)=O", "REPORTED METRIC": "clearance", "OBSERVED MEASUREMENT": 48}

1. COCCS(=O)(=O)Nc1cc(-c2cc3c(c(OCCN4CCC(C(C)(C)O)CC4)c2)CCOC3)cnc1OC
2. COCCS(=O)(=O)Nc1cc(-c2cc3c(c(OC[C@H]4CN(C5COC5)CCO4)c2)COC3)cnc1OC
input: Sorting ascending by clearance, which comes first: 1 or 2 ? Answer by stating the label of the chosen item.
output: 2
